Reference for the values: patent US20240270821A1

target: human glucagon receptor (human) (UniProt P47871); experiment: cell-based or functional assay
Sequence (P47871 26-477): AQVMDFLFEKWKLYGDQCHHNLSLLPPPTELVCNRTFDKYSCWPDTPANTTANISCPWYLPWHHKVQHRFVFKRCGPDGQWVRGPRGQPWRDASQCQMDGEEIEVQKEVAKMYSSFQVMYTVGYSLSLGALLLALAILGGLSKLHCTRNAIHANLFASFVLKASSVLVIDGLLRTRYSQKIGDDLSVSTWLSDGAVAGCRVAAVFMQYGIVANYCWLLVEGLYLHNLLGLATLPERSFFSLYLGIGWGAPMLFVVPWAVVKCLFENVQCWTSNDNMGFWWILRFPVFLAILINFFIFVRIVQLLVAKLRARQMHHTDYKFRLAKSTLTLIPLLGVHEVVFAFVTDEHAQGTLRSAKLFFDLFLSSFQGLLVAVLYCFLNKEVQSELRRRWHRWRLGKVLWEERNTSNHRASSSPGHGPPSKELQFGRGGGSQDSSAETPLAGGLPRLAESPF
Non-standard residues stand in square brackets, D forms with d. No end group written: not given here. αMePhe(2-F) = C[C@](N)(Cc1ccccc1F)C(=O)O; Aib = CC(C)(N)C(=O)O
readout: Relative cAMP EC50 (nM)
Return type: number; implicit unit nM.

Answered cases to consult:
binder | Relative cAMP EC50, nM
YXQGTFTSDXSXXLDKKAQXAFIEYLIAGGPSSGAPPPSGSEE (Aib, 4Pal, Orn, αMeL, Me4Pal; acylated Lys; C-terminal amide; synthetic construct; SITE 2: note = 2-Aminoisobutyric Acid; SITE 10: note = 3-(4-Pyridyl)-L-alanine; SITE 12: note = L-ornithine; SITE 13: note = alpha-methyl-leucine; SITE 17: note = Lysine is chemically modified through conjugation of the epsilon-amino group of the Lysine side chain with (Glu)-(ga)) [Example 1060] | 9.08
YXQGTFTSDFSKXLDKKAQXAFIEYLIEXGPSSGAPPPSGS (synthetic construct; SITE 2: note = 2-Aminoisobutyric Acid; SITE 13: note = alpha-methyl-leucine; SITE 17: note = Lysine is chemically modified through conjugation of the epsilon-amino group of the Lysine side chain with (2-[2-(2-Amino-ethoxy)-ethoxy]-acetyl)-(gamma-Glu)-CO-(CH2) 16-CO2H; SITE 20: n) [Example 797] | 3.78

# evaluate next
Lookup: Quickly give me recorded Relative cAMP EC50 for Y[Aib]QGT[αMePhe(2-F)]TSDFSILLDKQAQKAFIEYLLEGGPSSGEPPPSEG-NH2 (not fully specified (residue 20)) [Example 346]
Found: 15.6
